# MEASURED_TARGET: UniProtKB P00915
# Sequence (P00915 whole entry): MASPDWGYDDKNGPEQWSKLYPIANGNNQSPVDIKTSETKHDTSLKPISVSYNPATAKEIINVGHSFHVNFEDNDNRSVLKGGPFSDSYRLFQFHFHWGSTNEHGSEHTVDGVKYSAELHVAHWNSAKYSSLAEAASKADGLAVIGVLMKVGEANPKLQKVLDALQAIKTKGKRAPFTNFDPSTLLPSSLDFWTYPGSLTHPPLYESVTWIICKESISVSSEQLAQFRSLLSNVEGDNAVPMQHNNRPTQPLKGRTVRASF
RESULT_TYPE: Ki (nM)
Your answer should be a plain number; it is taken to be in nM.

[ask] // query Ki value for entry "NS(=O)(=O)c1ccc(CCn2c(=S)[nH]c3ccc(F)cc3c2=O)cc1"
[reply] 212

* * *

# MEASURED_TARGET: UniProt O43570
# Sequence (O43570 whole entry): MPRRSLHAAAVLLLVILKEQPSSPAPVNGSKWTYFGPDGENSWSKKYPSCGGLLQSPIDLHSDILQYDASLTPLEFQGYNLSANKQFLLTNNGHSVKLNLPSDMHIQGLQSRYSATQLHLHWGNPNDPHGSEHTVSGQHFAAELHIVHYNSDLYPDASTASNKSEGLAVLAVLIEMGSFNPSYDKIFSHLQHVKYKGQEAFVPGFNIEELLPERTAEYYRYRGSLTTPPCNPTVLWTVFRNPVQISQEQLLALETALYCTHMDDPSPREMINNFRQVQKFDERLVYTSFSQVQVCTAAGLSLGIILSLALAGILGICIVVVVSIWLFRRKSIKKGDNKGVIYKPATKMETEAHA
# PROCEDURE_SUMMARY: Inhibition of human CA12 preincubated for 15 mins by stopped flow CO2 hydration assay
RESULT_TYPE: Ki

[ask] // query Ki value for entry "NS(=O)(=O)c1ccc(CCn2c(=S)[nH]c3ccc(F)cc3c2=O)cc1"
[reply] 0.62 nM
